The following molecules are shown together with reported pKi values.
biological target: Human A2A adenosine receptor (Homo sapiens, UniProt P29274); assay: Radioligand binding for A2A adenosine receptor ([3H]-ZM-241385 competition, HEK-A2A membranes); settings: HEK-293 membranes, 2 nM [3H]-ZM-241385, read-out: A2A Cell based Functional Ki*
Sequence (P29274 whole entry): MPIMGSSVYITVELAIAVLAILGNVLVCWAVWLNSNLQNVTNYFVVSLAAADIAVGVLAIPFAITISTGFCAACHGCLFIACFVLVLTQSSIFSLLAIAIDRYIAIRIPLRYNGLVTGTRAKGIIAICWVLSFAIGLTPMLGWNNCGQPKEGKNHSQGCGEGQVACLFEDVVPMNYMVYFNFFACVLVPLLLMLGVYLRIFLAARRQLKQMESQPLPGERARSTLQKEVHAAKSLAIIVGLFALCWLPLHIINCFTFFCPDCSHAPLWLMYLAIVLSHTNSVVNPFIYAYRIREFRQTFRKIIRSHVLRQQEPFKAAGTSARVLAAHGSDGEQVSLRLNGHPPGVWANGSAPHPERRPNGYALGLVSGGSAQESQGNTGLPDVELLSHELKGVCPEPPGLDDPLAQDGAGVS
pKi: −log10 of the molar value.

As a guide, the following entries are already answered.
| MOLECULE | pKi |
| --- | --- |
| Nc1nc2c(c3nc(-c4ccco4)nn13)n(CC(F)(F)F)c(=O)n2CCN1CCN(c2ccc(F)cc2F)CC1 [Example H2] | 8.00 to 10.00 |
| CCOc1ccc(N2CCN(CCn3c(=O)n(CC4CC4)c4c3nc(N)n3nc(-c5ccco5)nc43)CC2)cc1 [Example C1] | 8.00 to 10.00 |
| COc1ccc(CCn2c(=O)n(C)c3c2nc(N)n2nc(-c4ccco4)nc32)cc1 [Example A57] | 8.00 to 10.00 |
| CN(C)S(=O)(=O)N1CCN(CCn2c(=O)n(C)c3c2nc(N)n2nc(-c4ccco4)nc32)CC1 [Example A38] | 8.00 to 10.00 |
| Nc1nc2c(c3nc(-c4ccco4)nn13)n(CC1CC1)c(=O)n2CCn1cc(C(=O)O)cn1 [Example E1] | 8.00 to 10.00 |

**Q:** Requested read-out: pKi. Entry: COCCOc1ccc(N2CCN(CCn3c(=O)n(C)c4c3nc(N)n3nc(-c5ccco5)nc43)CC2)cc1 [Example A1]
**A:** 8.00 to 10.00

**Q:** GET /values?readout=pKi&item= COc1ccc(N2CCN(CCn3c(=O)n(C)c4c3nc(N)n3nc(-c5ccco5)nc43)CC2)c(F)c1 [Example A9]
**A:** 8.00 to 10.00

**Q:** Which pKi is reported for this molecule? COCCOc1ccc(N2CCN(CCn3c(=O)n(C)c4c3nc(N)n3nc(-c5nccs5)nc43)CC2)cc1 [Example M1]
**A:** 8.00 to 10.00

**Q:** I am curious: what pKi value has been reported for Cn1c(=O)n(CCN2CCN(C(=O)C3CC3)CC2)c2nc(N)n3nc(-c4ccco4)nc3c21 [Example A62] ?
**A:** 8.00 to 10.00

**Q:** Bench note: what pKi did Cn1c(=O)n(CCN2CCN(CC3CC3)CC2)c2nc(N)n3nc(-c4ccco4)nc3c21 [Example A36] show?
**A:** 7.00 to 8.00

**Q:** Any idea what pKi was measured for Cn1c(=O)n(CCN2CCN(C(=O)CC3CC3)CC2)c2nc(N)n3nc(-c4ccco4)nc3c21 [Example A63] ?
**A:** 7.00 to 8.00

**Q:** Give the measured pKi of Cn1c(=O)n(CCN2CCN(c3ccc(OC(F)F)cc3)CC2)c2nc(N)n3nc(-c4ccco4)nc3c21 [Example A58] .
**A:** 8.00 to 10.00

**Q:** Suppose we examine the molecule CCn1c(=O)n(CCN2CCN(c3ccc(F)cc3F)CC2)c2nc(N)n3nc(-c4ccco4)nc3c21 [Example G2] ; what pKi value has been reported?
**A:** 7.00 to 8.00

**Q:** Dear colleague, I am looking for the recorded pKi of the following molecule: COCCOc1ccc(N2CCN(CCn3c(=O)n(C)c4c3nc(N)n3nc(-c5ccco5)nc43)CC2)c(F)c1 [Example A31]
**A:** 8.00 to 10.00

**Q:** Requested field: pKi. Item: Cn1c(=O)n(CCN2CCN(c3ccc(OC4CCOC4)cc3)CC2)c2nc(N)n3nc(-c4ccco4)nc3c21 (stereo not drawn) [Example A39]
**A:** 8.00 to 10.00
